Entry source: ChEMBL document CHEMBL3832084

- Protocol: Apparent terminal half-life of Estradiol evaluated after topical administration of Divigel.
- Assay type: ADME, organism-based
- Details: human, in vivo, topical or ocular, dosed compound id 17, dosed compound name ESTRADIOL, tissue Plasma, read-out: t1/2(app) (converted)
Endpoint Label: half-life (h)
Your answer is read as h, so omit the unit and give the number.

Query block: I am curious: what half-life value has been reported for "C[C@]12CC[C@@H]3c4ccc(O)cc4CC[C@H]3[C@@H]1CC[C@@H]2O" ?
Result block: 10

----------
- Protocol: Pharmacokinetic parameters for Estradiol on day 14, following multiple daily topical administration of Divigel 0.1 %,at steady state.
- Assay type: ADME, organism-based
- Set-up: dose 0.5 g, dose 1 g, dose 0.25 g, route topical
- Details: human, in vivo, topical or ocular, dose 0.25 g, dosed compound id 17, dosed compound name ESTRADIOL, regimen Multiple daily dose, sampling time1 Day 14 days, study dosing duration 14 days, tissue Plasma
Endpoint Label: Tmax
Number first, unit second: that is the form wanted.

Query block: Any idea what Tmax was measured for "C[C@]12CC[C@@H]3c4ccc(O)cc4CC[C@H]3[C@@H]1CC[C@@H]2O" ?
Result block: 16 h
